- protocol: IAM-HPLC affinity to phospholipids (CHI protocol)
- Assay type: physicochemical
- condition context: IAM column, pH 7.4, ACN gradient
parameter: CHIIAM
Just the number, please, no unit attached.

>>> result_number("Cc1ccc(C(C)C)c(OC(=O)CCCCCN2CCN(c3cc4c(cc3F)c(=O)c(C(=O)O)cn4C3CC3)CC2)c1")
50.29
>>> result_number("Cc1ccc(C(C)C)c(OC(=O)CCCN2CCN(c3cc4c(cc3F)c(=O)c(C(=O)O)cn4C3CC3)CC2)c1")
45.75
>>> result_number("Cc1ccc(C(C)C)c(OC(=O)CCCOC(=O)c2cn(C3CC3)c3cc(N4CCN(CCCC(=O)Oc5cc(C)ccc5C(C)C)CC4)c(F)cc3c2=O)c1")
45.54
>>> result_number("Cc1ccc(C(C)C)c(OC(=O)CCN2CCN(c3cc4c(cc3F)c(=O)c(C(=O)O)cn4C3CC3)CC2)c1")
44.44
>>> result_number("CC1CCC(C(C)C)C(OCC(=O)N2CCN(c3cc4c(cc3F)c(=O)c(C(=O)O)cn4C3CC3)CC2)C1 (stereo not shown)")
45.54

Enquiry: Look up and report measured CHIIAM for this entry: `Cc1ccc(C(C)C)c(OC(=O)CCCCN2CCN(c3cc4c(cc3F)c(=O)c(C(=O)O)cn4C3CC3)CC2)c1`
Return: 46.96

Enquiry: Look up and report measured CHIIAM for this entry: CC1CCC(C(C)C)C(OC(=O)CCCN2CCN(c3cc4c(cc3F)c(=O)c(C(=O)O)cn4C3CC3)CC2)C1 (stereo not shown)
Return: 53.32

Enquiry: Look up and report measured CHIIAM for this entry: `Cc1ccc(C(C)C)c(OC(=O)CN2CCN(c3cc4c(cc3F)c(=O)c(C(=O)O)cn4C3CC3)CC2)c1`
Return: 42.88

Enquiry: Look up and report measured CHIIAM for this entry: CC1CCC(C(C)C)C(OC(=O)CCCCOC(=O)c2cn(C3CC3)c3cc(N4CCN(CCCCC(=O)OC5CC(C)CCC5C(C)C)CC4)c(F)cc3c2=O)C1 (stereo not shown)
Return: 55.54

Enquiry: Look up and report measured CHIIAM for this entry: CC1CCC(C(C)C)C(OC(=O)CN2CCN(c3cc4c(cc3F)c(=O)c(C(=O)O)cn4C3CC3)CC2)C1 (stereo not shown)
Return: 46.88

Enquiry: Look up and report measured CHIIAM for this entry: `CC(C)[C@@H]1CC[C@@H](C)C[C@H]1OC(=O)CCCCCN1CCN(c2cc3c(cc2F)c(=O)c(C(=O)O)cn3C2CC2)CC1`
Return: 51.47

Enquiry: Look up and report measured CHIIAM for this entry: `Cc1ccc(C(C)C)c(OCC(=O)N2CCN(c3cc4c(cc3F)c(=O)c(C(=O)O)cn4C3CC3)CC2)c1`
Return: 43.58

Enquiry: Look up and report measured CHIIAM for this entry: CC1CCC(C(C)C)C(OC(=O)CCCCCOC(=O)c2cn(C3CC3)c3cc(N4CCN(CCCCCC(=O)OC5CC(C)CCC5C(C)C)CC4)c(F)cc3c2=O)C1 (stereo not shown)
Return: 57.85
